melting point: recorded values
endpoint label: melting point

| molecule | recorded result |
| --- | --- |
| COCCOCc1c(CN(C)CC(O)c2ccc(C#N)s2)sc2c(=O)c(C(=O)NCc3ccc(Cl)cc3)cn(C)c12 (stereo not shown) | 163 to 164 °C |
| CN(Cc1sc2c(=O)c(C(=O)NCc3ccc(Cl)cc3)cn(C)c2c1CO)CC(O)c1ccc2ccccc2n1 (stereo not shown) | 196 to 198 °C |
| COc1cccc(C(O)CN(C)Cc2sc3c(=O)c(C(=O)NCc4ccc(Cl)cc4)cn(C)c3c2CO)c1 (stereo not shown) | 165 to 168 °C |
| COCCOCc1c(CN(C)CC(O)c2c[nH]c3ccccc23)sc2c(=O)c(C(=O)NCc3ccc(Cl)cc3)cn(C)c12 (stereo not shown) | 167 to 169 °C |
